Here, each record is paired with measured growth data.
Test system: NCI-H226 lung
Assay: NCI-60 one-dose screen, 48 h (100 = growth as untreated, 0 = no growth, -100 = all killed)
Conditions: 10 µM
Compounds without any hit were thinned out: in the full panel of roughly 83,000, 20% have a hit. Calls of active or inactive are those of the source. The calls were made as follows: active = growth percent below 10; inactive = the rest.
readout-label: growth

INSERT INTO measurements (compound, target, reading) VALUES
  ('CCOC(=O)c1cc(C(=O)c2cc(OC)cc(OC)c2)n2ncc3ccccc3c12', 'NCI-H226 lung', '59.1% (inactive)'),
  ('COc1cc(/C=C/c2cc(/C=C/c3ccc(O)c(OC)c3)nc(N)n2)ccc1O', 'NCI-H226 lung', '11.7% (inactive)'),
  ('CC1CCCC(C(=O)O)C1C(=O)O (stereo not given)', 'NCI-H226 lung', '96.7% (inactive)'),
  ('O=C(CCCSc1nc(-c2ccccc2)cc(-c2ccc(Cl)cc2)n1)NO', 'NCI-H226 lung', '10.6% (inactive)'),
  ('CS(=O)(=O)c1nccc(-c2c(-c3cccc(OCc4ccc(F)cc4)c3)nc3sccn23)n1', 'NCI-H226 lung', '55.5% (inactive)'),
  ('CN(C)CCCOc1ccccc1NC1=C(Cl)C(=O)C(Nc2ccccc2OCCCN(C)C)=C(Cl)C1=O', 'NCI-H226 lung', '-81% (active)'),
  ('O=C(CCl)Oc1ccc(OC(=O)CCl)cc1', 'NCI-H226 lung', '96.5% (inactive)'),
  ('COc1cccc(C2C(C#N)=C(N)Oc3cc(N)ccc32)c1 (stereo not given)', 'NCI-H226 lung', '70% (inactive)'),
  ('CCOC(=O)c1cc(C(=O)c2ccc(OC)c(OC)c2)n2c1ccc1ccc3cccnc3c12', 'NCI-H226 lung', '64.4% (inactive)'),
  ('C=CCN(CC=C)C(=O)[C@H](CC)[C@@H]1CC[C@@H](C)[C@@H]([C@H](C)[C@@H](O)[C@@H](C)C(=O)[C@H](CC)C2O[C@]3(C=C[C@@H](O)[C@]4(CC[C@@](C)([C@H]5CC[C@](O)(CC)[C@H](C)O5)O4)O3)[C@H](C)C[C@@H]2C)O1 (stereo not given in full)', 'NCI-H226 lung', '-0.687% (active)'),
  ('CN(C)CCOc1ccc(-c2nc3sccn3c2-c2ccnc(S(C)(=O)=O)n2)cc1', 'NCI-H226 lung', '102% (inactive)'),
  ('O=C(Nc1ccc2c(O)cc(S(=O)(=O)O)cc2c1)c1ccc([N+](=O)[O-])cc1', 'NCI-H226 lung', '96.2% (inactive)'),
  ('COc1ccc(/C=C2\CCCC3=C2NC(N)=NC3c2ccc(OC)c(OC)c2)cc1OC (stereo not given)', 'NCI-H226 lung', '34.1% (inactive)'),
  ('COc1ccc(C(=O)COc2cccc(/C=C3\Cc4ccccc4C3=O)c2)cc1', 'NCI-H226 lung', '73.4% (inactive)'),
  ('CCN(CC)CC(=O)N(CC)c1ccc(C)c(Cl)c1', 'NCI-H226 lung', '99.8% (inactive)');

* * *

System: OVCAR-5 ovarian
Test: NCI-60 one-dose screen, 48 h (100 = growth as untreated, 0 = no growth, -100 = all killed)
Settings: 10 µM
About 83,000 compounds went through this panel and 20% of them were active in at least one assay; those are over-represented in the sample as a whole.
Collected growth values appear next to each entry.
readout-label: growth (%)

INSERT INTO measurements (compound, readout_label, result_unit, reading) VALUES
  ('COc1ccc(C(=O)CC(CC(=O)c2ccc(OC)cc2)c2c(C)nn(-c3ccccc3)c2Cl)cc1', 'growth', '%', 91.8),
  ('Cc1cc(C(C#N)c2ccc(Cl)cc2)c(Cl)cc1NC(=O)c1cc(I)cc(I)c1O (stereo unspecified)', 'growth', '%', 87.8),
  ('COc1ccc2nc(-c3ccc(Cl)cc3)cc(-c3nnc(SC/C(=N\O)c4ccccc4)n3-c3ccccc3)c2c1', 'growth', '%', 88.6),
  ('COc1ccc(/C=C/C(=O)C(=O)/C=C/c2ccc(OC)c(OC)c2)cc1OC', 'growth', '%', 60.5),
  ('C(=N\Nc1ncnc2sc3c(c12)CCNC3)/c1cccc2ccccc12', 'growth', '%', 89.8),
  ('COc1ccc(-c2cc(-c3ccccc3)nc(SCCCCCCC(=O)NO)n2)cc1', 'growth', '%', 58.2);
